assay: Chemical stability of the compound; type: physicochemical
Measured property: Stability

>>> measurement("COc1ccc(CNc2nc(NCC(C)OC(=O)Nc3ccccc3)nc3c(NCc4ccc(OC)c(OC)c4)nc(NCC(C)OC(=O)CCC(=O)O)nc23)cc1OC (stereo not drawn)")
"Unstable"
>>> measurement("COC(=O)[C@@H](NC(=O)OC(C)CNc1nc(NCc2ccc(OC)c(OC)c2)c2nc(NCC(C)O)nc(NCc3ccc(OC)c(OC)c3)c2n1)C(C)C (stereo partly drawn)")
"Unstable"
>>> measurement("CCOC(=O)CNC(=O)OC(C)CNc1nc(NCc2ccc(OC)c(OC)c2)c2nc(NCC(C)O)nc(NCc3ccc(OC)c(OC)c3)c2n1 (stereo not drawn)")
"Unstable"
>>> measurement("COc1ccc(NC(=O)OC(C)CNc2nc(NCc3ccc(OC)c(OC)c3)c3nc(NCC(C)OC(=O)Nc4ccc(OC)cc4)nc(NCc4ccc(OC)c(OC)c4)c3n2)cc1 (stereo not drawn)")
"Stable"

Attention now shifts to the item below.
Record COc1ccc(CNc2nc(NCC(C)OC(=O)Nc3ccc(C(F)(F)F)cc3)nc3c(NCc4ccc(OC)c(OC)c4)nc(NCC(C)OC(=O)Nc4ccc(C(F)(F)F)cc4)nc23)cc1OC (stereo not drawn) . Reported Stability: Stable

###

Consider the following molecules; for each one, report its inhibition.
tested on: COR-L23; experiment: Inhibition of ENT-mediated [3H]thymidine incorporation in human COR-L23 cells at 0.1 uM by liquid scintillation counting; format: cell-based

Just so you know, measured inhibition for CCOC(=O)[C@H](C)NC(=O)OC(C)CNc1nc(NCc2ccc(OC)c(OC)c2)c2nc(NCC(C)O)nc(NCc3ccc(OC)c(OC)c3)c2n1 (stereo partly drawn) came out at 39%

# inhibition of COc1ccc(CNc2nc(NC[C@H](C)O)nc3c(NCc4ccc(OC)c(OC)c4)nc(NC[C@H](C)O)nc23)cc1OC = 68%

Noted for COc1ccc(CNc2nc(NCC(C)OC(=O)Nc3ccccc3)nc3c(NCc4ccc(OC)c(OC)c4)nc(NCC(O)CO)nc23)cc1OC (stereo not drawn) : its inhibition reads 69%

The molecule C=CCOc1ccc(CNc2nc(NCC(C)O)nc3c(NCc4ccc(OC)c(OC)c4)nc(NCC(C)O)nc23)cc1OC (stereo not drawn) showed inhibition equal to 81%

// COC(=O)[C@@H](NC(=O)OC(C)CNc1nc(NCc2ccc(OC)c(OC)c2)c2nc(NCC(C)O)nc(NCc3ccc(OC)c(OC)c3)c2n1)C(C)C (stereo partly drawn) : inhibition value = 79%

Field inhibition (entry COc1ccc(CNc2nc(NCC(C)OC(=O)Nc3ccccc3)nc3c(NCc4ccc(OCCN5CCOCC5)c(OC)c4)nc(NCC(C)O)nc23)cc1OC (stereo not drawn) ) reads 80%

Quick note, inhibition for OCCN(CCO)c1nc(N2CCCCC2)c2nc(N(CCO)CCO)nc(N3CCCCC3)c2n1 [DIPYRIDAMOLE] landed at 78%

Form field inhibition, entry COc1ccc(CNc2nc(NCC(C)OC(=O)Nc3ccccc3)nc3c(NCc4ccc(OC)c(OC)c4)nc(NCC(C)O)nc23)cc1OC (stereo not drawn) : 81%

inhibition reading for COc1ccc(CNc2nc(NCC(C)OC(=O)[C@@H](N)C(C)C)nc3c(NCc4ccc(OC)c(OC)c4)nc(NCC(C)OC(=O)[C@@H](N)C(C)C)nc23)cc1OC.Cl.Cl (stereo partly drawn) : 59%

Measured inhibition of COc1ccc(CNc2nc(NCC(C)OP(=O)(O)O)nc3c(NCc4ccc(OC)c(OC)c4)nc(NCC(C)OC(=O)Nc4ccccc4)nc23)cc1OC (stereo not drawn) : 53%

Consider COc1ccc(CNc2nc(NCC(C)OC(=O)Nc3ccc([N+](=O)[O-])cc3)nc3c(NCc4ccc(OC)c(OC)c4)nc(NCC(C)O)nc23)cc1OC (stereo not drawn) . Its measured inhibition is 84%

molecule COc1ccc(CNc2nc(NCC(C)OC(=O)Nc3ccccc3)nc3c(NCc4ccc(OC)c(OC)c4)nc(NCC(C)OC(=O)CCC(=O)O)nc23)cc1OC (stereo not drawn) , inhibition observed: 75%

Record CCOC(=O)CNC(=O)OC(C)CNc1nc(NCc2ccc(OC)c(OC)c2)c2nc(NCC(C)O)nc(NCc3ccc(OC)c(OC)c3)c2n1 (stereo not drawn) . Reported inhibition: 85%

The reported inhibition of the molecule COc1ccc(CNc2nc(NCC(C)OC(=O)[C@@H](N)C(C)C)nc3c(NCc4ccc(OC)c(OC)c4)nc(NCC(C)OC(=O)Nc4ccccc4)nc23)cc1OC (stereo partly drawn) was 68%

Entry COc1ccc(NC(=O)OC(C)CNc2nc(NCc3ccc(OC)c(OC)c3)c3nc(NCC(C)O)nc(NCc4ccc(OC)c(OC)c4)c3n2)cc1 (stereo not drawn) — recorded inhibition = 84%

Item: COc1ccc(CNc2nc(NCC(C)O)nc3c(NCc4ccc(OC)c(OC)c4)nc(NCC(C)O)nc23)cc1OC (stereo not drawn) | inhibition: 66%

Recorded inhibition (molecule COc1ccc(CNc2nc(NCC(C)OC(=O)[C@@H](N)C(C)C)nc3c(NCc4ccc(OC)c(OC)c4)nc(NCC(C)O)nc23)cc1OC.Cl (stereo partly drawn) ): 64%

Please fill in: inhibition reported for COc1ccc(CNc2nc(NCC(C)OC(=O)Nc3ccc(C(F)(F)F)cc3)nc3c(NCc4ccc(OC)c(OC)c4)nc(NCC(C)O)nc23)cc1OC (stereo not drawn) = 75%
